# Assay system: human serotonin transporter (hSERT) (Homo sapiens)
# Construct: expressed in transfected cells; host or cells: HEK-293
# Sequence (P31645 whole entry): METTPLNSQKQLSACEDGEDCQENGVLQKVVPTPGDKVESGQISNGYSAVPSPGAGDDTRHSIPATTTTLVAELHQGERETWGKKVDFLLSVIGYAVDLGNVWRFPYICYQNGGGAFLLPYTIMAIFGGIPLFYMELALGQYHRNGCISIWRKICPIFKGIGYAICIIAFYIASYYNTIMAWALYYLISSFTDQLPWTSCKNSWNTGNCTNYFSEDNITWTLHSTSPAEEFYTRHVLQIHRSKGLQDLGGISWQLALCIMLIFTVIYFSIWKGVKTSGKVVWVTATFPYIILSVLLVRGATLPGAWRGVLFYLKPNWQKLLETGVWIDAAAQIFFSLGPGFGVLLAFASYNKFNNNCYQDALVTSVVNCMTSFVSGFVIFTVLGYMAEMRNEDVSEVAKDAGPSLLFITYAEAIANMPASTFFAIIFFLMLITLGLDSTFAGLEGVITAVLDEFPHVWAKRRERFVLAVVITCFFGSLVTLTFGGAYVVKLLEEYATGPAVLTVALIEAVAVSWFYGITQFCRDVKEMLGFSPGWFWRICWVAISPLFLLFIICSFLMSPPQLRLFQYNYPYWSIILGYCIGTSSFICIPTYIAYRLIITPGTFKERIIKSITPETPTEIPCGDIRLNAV
# Assay method text: SPA radioligand binding at human serotonin transporter (3H-citalopram)
Counter-ions that a name gives are not always drawn.
Measurement name: Ki (µM)
Numbers only, in µM.

Can you share its Ki? I mean this compound: O=C(c1ccccc1Oc1ccccc1)N(c1ccccc1)[C@H]1CCNC1 [Example 14, hydrochloride]
0.067

---

# Assay system: human serotonin transporter (hSERT) (Homo sapiens)
# Construct: expressed in transfected cells; host or cells: HEK-293
# Assay method text: SPA radioligand binding at human serotonin transporter (3H-citalopram)
# Reported conditions: hSERT membranes from HEK-293 cells, 3H-citalopram, SPA; read-out: SRI Ki
pKi: −log10 of the molar value. Counter-ions that a name gives are not always drawn.
Label scheme for pKi: lower than 7 is NO, 7 and above is YES.

API: above_or_equal(metric=pKi, cutoff=7) for item CCCN(C(=O)c1cc(F)ccc1Oc1ccccc1)[C@H]1CCNC1 [Example 7, hydrochloride]
NO

Thanks! And O=C(c1ccccc1C1CCCC1)N(CC1CC1)[C@H]1CCNC1 [Example 19, hydrochloride] ?
NO

Thanks! And CSc1ccccc1C(=O)N(C1CCCCC1)[C@H]1CCNC1 [Example 20, hydrochloride] ?
YES

Thanks! And CSc1ccccc1C(=O)N(CC1(C)CCC1)[C@H]1CCNC1 [Example 9, hydrochloride] ?
YES
